TEST_SYSTEM: Cannabinoid receptor 1 (Homo sapiens, UniProt P21554)
Sequence (P21554 whole entry): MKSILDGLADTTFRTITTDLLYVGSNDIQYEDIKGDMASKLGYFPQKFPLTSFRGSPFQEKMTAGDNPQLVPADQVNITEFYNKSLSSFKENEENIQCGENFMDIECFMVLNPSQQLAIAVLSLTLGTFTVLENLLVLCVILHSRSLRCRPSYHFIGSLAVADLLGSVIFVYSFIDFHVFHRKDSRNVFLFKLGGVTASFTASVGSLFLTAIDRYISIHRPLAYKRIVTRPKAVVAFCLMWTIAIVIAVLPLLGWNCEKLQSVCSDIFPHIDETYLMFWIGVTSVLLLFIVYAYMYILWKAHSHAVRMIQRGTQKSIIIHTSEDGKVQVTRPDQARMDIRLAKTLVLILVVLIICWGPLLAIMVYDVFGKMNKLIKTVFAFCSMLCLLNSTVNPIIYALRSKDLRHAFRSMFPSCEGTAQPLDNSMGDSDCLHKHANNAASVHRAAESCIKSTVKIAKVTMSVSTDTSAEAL
EXPERIMENTAL_PROTOCOL: Displacement of [3H]CP55,940 from human recombinant CB1 receptor expressed in CHO-K1 cells at 10 uM
Format: cell-based
EXPERIMENTAL_READOUT: inhibition (%)

* O=C1/C(=C/c2ccccc2Cl)N=C2SCCCN12 | 0
* O=C(Oc1cccc(/C=C2\N=C3SCCCN3C2=O)c1)c1ccccc1 | 2
* O=C1/C(=C/c2ccc(-c3ccccc3)cc2)N=C2SCCCCN12 | -5
* O=C1/C(=C/c2cccc(OCc3ccccc3Cl)c2)N=C2SCCCN12 | 0
* O=C1/C(=C/c2ccc(Cl)cc2Cl)N=C2SCCCN12 | 8
* CCOC(=O)C1CN2C(=O)C(c3ccccc3)(c3ccccc3)N=C2S1 (stereo unspecified) | 2
* O=C1/C(=C/c2cccc(Cl)c2)N=C2SCCCN12 | 30
* COc1cccc(/C=C2\N=C3SCCCN3C2=O)c1OC | 18
* CC(C)c1ccc(/C=C2\N=C3SCCCN3C2=O)cc1 | 12
* O=C1/C(=C/c2cccc(Oc3ccccc3)c2)N=C2SCCCN12 | 29
* CCOC(=O)C1CN2C(=NC(=O)C2(c2ccccc2)c2ccccc2)S1 (stereo unspecified) | 26

// provenance: ChEMBL document CHEMBL3217528
